FYI, the data here is from ChEMBL document CHEMBL1201862.

- Test system: M14
- EXPERIMENT NOTES: NCI tumour cell line growth inhibition, 48 h
Calls of active or inactive are those of the source. Rule as the data show it: active = GI50 up to about 1.1 µM and inactive = higher.
MEASUREMENT NAME: GI50

• COc1ccc(OC)c2c3c([nH]c12)C(=O)Nc1nc(N)nc(N)c1C3 = > 100 µM (inactive)
• O=C(/C=C/c1ccc(Cl)cc1)c1ccc(Cl)c(Cl)c1 = 28 µM (inactive)
• COc1cc(-c2ccccc2)c(OC)cc1CCl = > 100 µM (inactive)
• CN(C)CCNc1ccc(C(=O)NCCCN(C)CCCNC(=O)c2ccc(NCCN(C)C)c3c(=O)c4ccccc4[nH]c23)c2[nH]c3ccccc3c(=O)c12 = 0.218 µM (active)
• C[N+](C)(C)CC(=O)N/N=C(\C(=O)Nc1ccc(Cl)cc1)C1C(=O)N(c2ccccc2)N=C1N (configuration not stated) = > 100 µM (inactive)
• NC(=O)N/N=C/c1ccccc1O = > 100 µM (inactive)
• O=C1c2ccccc2C(=O)c2[nH]c(Cc3ccc(F)cc3)nc21 = 15.3 µM (inactive)

---

- Test system: PC-3
- EXPERIMENT NOTES: NCI tumour cell line growth inhibition, 48 h
The source made the active and inactive calls. Cut-off read from the data, not from the text of the source: active = GI50 up to about 1.1 µM and inactive = higher.
Recorded GI50 by entry
MEASUREMENT NAME: GI50

* O=C(Cn1c(=O)oc2ccc(C(=O)c3ccc(F)cc3)cc21)c1ccccc1 | > 100 µM (inactive)
* S=C(Nc1ccc(Cl)cc1)c1ccc(CN2CCCCC2)s1 | 18.5 µM (inactive)
* N#Cc1c(N)c(C#N)c2c(c1-c1ccc(Cl)cc1)COc1ccccc1-2 | 16.8 µM (inactive)
* C[N+](C)(CCNC(=O)c1cccc2cc3ccccc3nc12)Cc1ccc([N+](=O)[O-])cc1 | > 100 µM (inactive)
* O=[N+]([O-])c1ccc(O)c(/C=N/CC2CCCN3CCCCC23)c1 (stereo unspecified) | 57.1 µM (inactive)
* CCCCCCCCCCCC(=O)NCc1ccc(OC(=O)CCCCCCCCCCC)c(OC)c1 | 15.1 µM (inactive)

---

Recorded GI50 by entry
- Test system: KM12
- EXPERIMENT NOTES: NCI tumour cell line growth inhibition, 48 h
Activity calls are given as the source filed them. Cut-off read from the data, not from the text of the source: active = GI50 up to about 1.1 µM and inactive = higher.
MEASUREMENT NAME: GI50

- CC1=C(C(=O)Nc2ccccc2C)C(c2ccccc2)C(C(=O)Nc2ccccc2C)=C(C)N1: 26.6 µM (inactive)
- CCCCNc1nc2ccccc2c2c1ncn2CC(C)C: > 100 µM (inactive)
- CCOCC(=O)N(C)c1cccc2c3c(n(C)c12)CCCCC3: > 100 µM (inactive)
- O=S1(=O)CCC2=CC(C(F)(F)F)=CC(C(F)(F)F)=CN21: 1.71 µM (inactive)

---

- Tested on: KM12
- EXPERIMENT NOTES: NCI tumour cell line growth inhibition, 48 h
Activity calls are given as the source filed them. No stated cut-off is given here; in the data, active = GI50 up to about 1.1 µM and inactive = higher.
Recorded GI50 by entry
MEASUREMENT NAME: GI50

• CCOC(=N)CC(=O)NC(C)c1ccccc1 (centres undefined) = > 100 µM (inactive)
• N#CCCN(CCC#N)c1ccc(/C=C2\N=C(c3cc([N+](=O)[O-])ccc3Cl)N(NC(=O)CC(=O)Nc3ccccc3Cl)C2=O)cc1 = > 100 µM (inactive)
• CC(=O)Oc1ccc2c(c1)c1c(OC(C)=O)c3ccccc3c(OC(C)=O)c1n2Cc1cccc(C)c1 = 28.4 µM (inactive)
• COc1ccc(NC(=O)CC/C(CC(=O)C(C)(C)C)=N\NC(=O)C(=O)NN)cc1 = > 100 µM (inactive)
• O=C1C(=O)N(C(=O)c2ccc(Cl)c(Cl)c2)c2ccc(Cl)cc21 = > 100 µM (inactive)
• CCOC(=O)N/N=C(/N)c1cccc([N+](=O)[O-])c1 = > 100 µM (inactive)
• [N-]=[N+]=Nc1c(Cl)c(Cl)nc2ccccc12 = > 100 µM (inactive)
• CNc1cccnc1/C=N/N=C(/N)S = 4.52 µM (inactive)
• O=C1/C(=C/c2ccc(OC(=O)c3ccc(Cl)cc3)cc2)CCC/C1=C\c1ccc(OC(=O)c2ccc(Cl)cc2)cc1 = > 100 µM (inactive)

---

- System: OVCAR-3
- EXPERIMENT NOTES: NCI tumour cell line growth inhibition, 48 h
Calls of active or inactive are those of the source. No stated cut-off is given here; in the data, active = GI50 up to about 1.1 µM and inactive = higher.
Recorded GI50 by entry
MEASUREMENT NAME: GI50

• Cc1cccc(-c2nnc3s/c(=C\c4ccc5c(c4)OCO5)c(=O)n23)c1 = > 100 µM (inactive)
• C#C[C@]1(O)CC[C@H]2[C@@H]3CCc4cc(O)ccc4[C@H]3CC[C@@]21C [ETHINYL ESTRADIOL] = 28 µM (inactive)
• O/N=C1/CCCC/C1=C/C=C/c1ccccc1 = 17.9 µM (inactive)
• NC(=O)C(c1ccccc1)N1CCOCC1 (centres undefined) = > 100 µM (inactive)
• CC1=CC2=C(C=O)C(=O)[C@](C)(O)[C@@H](O)C2=CO1 = 1.56 µM (inactive)
• O=C(Cn1c(C(=O)c2ccccc2)nc2ccccc21)c1ccccc1 = > 100 µM (inactive)
• COC(=O)C(C(=O)Cc1ccccc1[N+](=O)[O-])C(=O)OC = > 100 µM (inactive)
• C=C1C(C2(C)C(OC(C)=O)CC(=O)OC(C)(COC(C)=O)C2CC(=O)OC)C(OC=O)C(OC(=O)C(O)C(C)CC)C2(C)C(c3ccoc3)CC(=O)C12O (centres undefined) = > 42.7 µM (inactive)
• O=C1CC(NCc2ccccc2)c2c(Cl)sc(Cl)c21 (centres undefined) = 20 µM (inactive)

---

- System: SF-295
- EXPERIMENT NOTES: NCI tumour cell line growth inhibition, 48 h
Active and inactive are the calls of the source. No stated cut-off is given here; in the data, active = GI50 up to about 1.1 µM and inactive = higher.
MEASUREMENT NAME: GI50

• COc1ccccc1NC(=O)CC(=O)N1N=C(c2ccccc2)C(/N=N/c2ccc(Cl)cc2)C1=O (configuration not stated) = 30.5 µM (inactive)
• CN(C)CCNC(=O)c1nc([N+](=O)[O-])cn1C = > 100 µM (inactive)
• COC(=O)C(CCSC)NC(=O)Cc1ccc(C(=O)c2ccccc2)cc1 (configuration not stated) = 42.5 µM (inactive)
• COC(=N)C(C)C = > 100 µM (inactive)
• NNS(=O)(=O)c1cc(C(=O)O)cc(C(=O)O)c1 = > 100 µM (inactive)
• NC(C(=O)O)C(N)C(=O)O (configuration not stated) = > 100 µM (inactive)
• CC(C)(C)c1ccc(-c2nc3ccccc3c(=O)o2)cc1 = 23.8 µM (inactive)
• O=C(CC(O)(C(F)(F)F)C(F)(F)Cl)CC(O)(C(F)(F)F)C(F)(F)Cl (configuration not stated) = 2.4 µM (inactive)
• COc1ccc(-n2cnc3c(NC(Cc4ccccc4)C(=O)O)ncnc32)cc1 (configuration not stated) = > 100 µM (inactive)
• [N-]=[N+]=NC1(Cc2ccccc2)C(=O)Nc2ccccc2C1=O (configuration not stated) = > 100 µM (inactive)
• CC1(C)OCC2(CO1)CSCCCSCC1(COC(C)(C)OC1)CSCCCSC2 = > 100 µM (inactive)
• CN(C)CCNc1ccc(C(=O)NCCCN(C)CCCNC(=O)c2ccc(NCCN(C)C)c3c(=O)c4ccccc4[nH]c23)c2[nH]c3ccccc3c(=O)c12 = 0.0328 µM (active)
• Cc1c(N)c(C#N)c2n(C)c3ncccc3n2c1=O = > 100 µM (inactive)
• O=C(O)Cn1cnc2c(O)nc(Nc3ccccc3)nc21 = > 100 µM (inactive)
• COc1cc(C2c3cc4c(cc3OC3(OC)COC(=O)C23)OCO4)cc(OC)c1OC (configuration not stated) = 0.173 µM (active)
• CC(C)NCCCC(C)Nc1ccnc2ccc3nn(C)nc3c12 (configuration not stated) = 34.6 µM (inactive)
• CCOC(=N)CC(=O)NC(C)c1ccccc1 (configuration not stated) = > 100 µM (inactive)
• CC/C(CC(=O)CCC(=O)Nc1ccc(C)c(C)c1)=N\NC(=O)c1cc2ccccc2cc1O = 37.2 µM (inactive)
• COC(=O)[C@]12CCC(C)[C@H](C)[C@H]1C1=CCC3[C@@]4(C)CC[C@H](OC(C)=O)C(C)(C)C4CC[C@@]3(C)C1(C)C(O)C2 (some centres not stated) = > 100 µM (inactive)
• Cc1cccc(C)c1NC(=O)C1C(=O)N(c2c(C)cccc2C)C(=O)/C1=N\N (configuration not stated) = > 100 µM (inactive)
• Cc1cc2nc(C=C(C(F)(F)F)C(F)(F)F)oc2cc1C = > 10 µM (inactive)
• N#CC1(C#N)C2CCCCC23OC(=N)C1(C#N)C(c1ccccc1)O3 (configuration not stated) = 69 µM (inactive)
• Clc1ccc(OCC2NC3C=CC32)cn1 (configuration not stated) = > 100 µM (inactive)
• Cc1ccccc1NC(=O)c1ccc([N+](=O)[O-])cc1 = > 100 µM (inactive)
• COc1ccc2oc(S(=O)(=O)N3CC(CCl)c4ccc([N+](=O)[O-])cc43)cc2c1 (configuration not stated) = 0.0374 µM (active)
• CCOC(=O)C(=[N+]=[N-])C(=O)C1(C(=O)OCC)CCN(C(=O)c2ccccc2)C1=O (configuration not stated) = > 100 µM (inactive)
• CC1(C)C(=O)N(O)C(C)(C)N1O = > 10 µM (inactive)
• COc1cc2c(cc1OC)C1Cc3ccccc3CN1CCC2 (configuration not stated) = > 100 µM (inactive)
• COC(=O)C1=C(OC(=O)/C(=C/c2ccc(Cl)cc2)c2ccc(Cl)cc2)C(C(=O)OC)[C@@]2(O)[C@@H](C(=O)OC)[C@H](C)C[C@@H]1[C@@H]2C(=O)OC (some centres not stated) = 3.22 µM (inactive)
• O=C1C=CC(=O)N1c1ccc(I)cc1 = 20.5 µM (inactive)
• O=C1c2ccccc2C(=O)c2[nH]c(Cc3ccc(F)cc3)nc21 = 16.7 µM (inactive)
• CC1CCCc2c(CC3CC(=O)NC(=O)C3)n[nH]c21 (configuration not stated) = > 100 µM (inactive)
• CN(C)C(=S)/N=C1\SC(=N\c2ccccc2)/C(=N/c2ccccc2)N1c1ccc([N+](=O)[O-])cc1 = > 100 µM (inactive)
• COC(=O)C(=O)C(C(=O)C(=O)Nc1cc(C)ccc1C)c1nc2ccc(C(=O)c3ccccc3)cc2nc1O (configuration not stated) = 83.6 µM (inactive)
• Cc1nc(Nc2nnc(-c3cc([N+](=O)[O-])cc([N+](=O)[O-])c3C)o2)sc1C(=O)CC(=O)Cc1nc2ccc(Cl)cc2nc1O = > 100 µM (inactive)
• N#CC(C(=O)/C(=N/NC(=O)c1ccccc1O)C(C#N)c1ccccc1)c1ccccc1 (configuration not stated) = > 100 µM (inactive)
• CC1(C)O[C@H](C(=O)O)[C@@H](C(=O)O)O1 = > 100 µM (inactive)
